These entries and their values trace back to PubChem BioAssay (NCATS).

PROTOCOL_SUMMARY: Cell Viability - LYMP2-018 (AID 985);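 further: compound exposure lasted 24 hr at 37 °C; nearly all actives have a fitted effect of over 50% in size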
DETAILS: LYMP2-018 lymphoblastoid cells, viability (qHTS); series mostly up to 92.2 µM
Results filed as inconclusive are left out. The source made the active and inactive calls. The call rests on the fitted dose curve; in most records, active means well fitted cell-killing curve with a large enough effect; inconclusive means small, poorly fitted or top-dose-only effect; inactive means flat fitted curve, though single readings scatter.
One label from this list, please: T = active, F = inactive

### Prompt Just curious, what result did CN(C)/N=N/c1nc[nH]c1C(N)=O get here?
### Response F

### Prompt Status in this test for COc1cccc2c1C(=O)c1c(O)c3c(c(O)c1C2=O)C[C@@](O)(C(C)=O)C[C@@H]3O[C@H]1C[C@H](N)[C@H](O)[C@H](C)O1 ?
### Response T

### Prompt Recorded test outcome, item O=c1ccc2ccccc2o1
### Response F

### Prompt Query: recorded result category for CC(=O)Oc1ccc(C(c2ccc(OC(C)=O)cc2)c2ccccn2)cc1 in this test
### Response F

### Prompt Could you please tell me the result logged for COC1=CC(=O)C[C@@H](C)[C@]12Oc1c(Cl)c(OC)cc(OC)c1C2=O in this assay?
### Response F

### Prompt What call does the record list for NC(=NCCCCCCN=C(N)/N=C(\N)Nc1ccc(Cl)cc1)/N=C(\N)Nc1ccc(Cl)cc1 ?
### Response T

### Prompt Would you mind telling me which call this test gave O=C1OC(c2ccc(O)cc2)(c2ccc(O)cc2)c2ccccc21 ?
### Response F

### Prompt For CC(C)(C)CC(C)(C)c1ccc(OCCOCC[N+](C)(C)Cc2ccccc2)cc1 , what call appears in the results of this test?
### Response T

### Prompt Kindly provide the recorded test outcome for the following compound: CC(=O)O[C@]1(C(C)=O)CC[C@H]2[C@@H]3C[C@H](C)C4=CC(=O)CC[C@]4(C)[C@H]3CC[C@@]21C
### Response T

### Prompt Kindly provide the recorded test outcome for the following compound: CCCCCCc1ccc(O)cc1O
### Response F

### Prompt For this compound, state the assay outcome: Nc1ccc(C(=O)O)cc1
### Response F
